assay: qHTS of pediatric cancer cell lines to identify multiple opportunities for drug repurposing: Primary screen for OHS-50 cells (AID 1347103); conditions: OHS-50 osteosarcoma viability, CellTiter-Glo luminescence, 48 h; series mostly up to 57.3 µM; further: nearly all actives have a fitted effect of over 40% in size
Records with an inconclusive call do not appear. Calls of active or inactive are those of the source. The call rests on the fitted dose curve; in most records, active means well fitted cell-killing curve with a large enough effect; inconclusive means small, poorly fitted or top-dose-only effect; inactive means no such curve, though single readings can be large or run the other way.
Log the outcome using a class from true for active, false for inactive

These solved cases illustrate the format of a correct answer.
[
  {
    "Molecule": "COC(=O)C[C@](O)(CCCC(C)(C)O)C(=O)O[C@@H]1C(OC)=C[C@]23CCCN2CCc2cc4c(cc2[C@H]13)OCO4",
    "Label class": "false"
  },
  {
    "Molecule": "NC(=O)c1c(OCc2c(F)cc(Br)cc2F)nsc1NC(=O)NCCCCN1CCCC1",
    "Label class": "true"
  }
]

Answer briefly: the call reported for CN(C)Cc1c(C(=O)NCCOc2ccc(C(=O)NO)cc2)oc2ccccc12 in this assay.
true

Answer briefly: the call reported for NC(=O)Nc1cc(-c2cccc(F)c2)sc1C(=O)N[C@H]1CCCNC1 in this assay.
true

Answer briefly: the call reported for C[C@H]1C[C@@H]2[C@@H]([C@@H](O)C[C@@]3(C)[C@H]2CC[C@]3(O)C(=O)CO)[C@@]2(C)C=CC(=O)C=C12 in this assay.
false

Answer briefly: the call reported for O=C(Cc1ccc(-c2ccc(OCCN3CCOCC3)cc2)cn1)NCc1ccccc1 in this assay.
true

Answer briefly: the call reported for O=c1[nH]nc(Sc2ncc([N+](=O)[O-])s2)n1-c1ccc2c(c1)OCCO2 in this assay.
true

###

assay: qHTS of pediatric cancer cell lines to identify multiple opportunities for drug repurposing: Primary screen for BT-37 cells (AID 1347094); conditions: BT-37 viability, CellTiter-Glo luminescence, 48 h; series mostly up to 57.3 µM
Inconclusive results are not listed. Activity calls are given as the source filed them. Calls follow the shape of the dose curve; as a rule, active = well fitted cell-killing curve with a large enough effect; inconclusive = small, poorly fitted or top-dose-only effect; inactive = flat fitted curve, though single readings scatter.
Log the outcome using a class from label 1 for active, label 0 for inactive

[
  {
    "Compound": "C[C@H]1C[C@@H]2[C@@H]([C@@H](O)C[C@@]3(C)[C@H]2CC[C@]3(O)C(=O)CO)[C@@]2(C)C=CC(=O)C=C12",
    "Label class": "label 0"
  },
  {
    "Compound": "COc1cc2nccc(Oc3ccc(NC(=O)C4(C(=O)Nc5ccc(F)cc5)CC4)cc3)c2cc1OC",
    "Label class": "label 1"
  },
  {
    "Compound": "c1cc(-c2cnn3cc(-c4ccc(OCCN5CCCCC5)cc4)cnc23)ccn1",
    "Label class": "label 1"
  },
  {
    "Compound": "CNC(=O)CN1CCC(Oc2cc3c(Nc4cccc(Cl)c4F)ncnc3cc2OC)CC1",
    "Label class": "label 1"
  },
  {
    "Compound": "N#Cc1c(O)c2c(-c3ccc(-c4ccccc4O)cc3)csc2[nH]c1=O",
    "Label class": "label 0"
  }
]

Answer briefly: the call reported for CC1(O)CC(c2nc(-c3ccc4ccc(-c5ccccc5)nc4c3)c3c(N)nccn23)C1 (stereo not drawn) in this assay.
label 1

Answer briefly: the call reported for O=C(O)C1(Cc2cccc(Nc3nccs3)n2)CCC(Oc2cccc(Cl)c2F)CC1 (stereo not drawn) in this assay.
label 0

Answer briefly: the call reported for CC(C)C[C@H](NC(=O)CNC(=O)c1cc(Cl)ccc1Cl)B(O)O in this assay.
label 1

###

Assay: qHTS of pediatric cancer cell lines to identify multiple opportunities for drug repurposing: Primary screen for MG 63 (6-TG R) cells (AID 1347105); further: nearly all actives have a fitted effect of over 50% in size
Settings: MG 63 (6-TG R) viability, CellTiter-Glo, 48 h; series mostly up to 46 µM
Experimental: Drug repurposing or repositioning has been offered as a strategy for drug development in oncology programs. This approach has special potential for childhood cancers and other rare or orphan diseases, where the expected return on new drug development has been a disincentive to pharmaceuticals. […] We employed a titration-based paradigm (quantitative high-throughput screening or qHTS), where all compounds were tested at multiple concentrations for their effect on cell viability. […]
Inconclusive results are not listed. Active and inactive are the calls of the source. The call rests on the fitted dose curve; in most records, active means well fitted cell-killing curve with a large enough effect; inconclusive means small, poorly fitted or top-dose-only effect; inactive means no such curve, though single readings can be large or run the other way.
Log the outcome using a class from Y for active, N for inactive

These solved cases illustrate the format of a correct answer.
[
  {
    "Structure as smiles": "N#CCNC(=O)c1ccc(-c2ccnc(Nc3ccc(N4CCOCC4)cc3)n2)cc1",
    "Label class": "Y"
  },
  {
    "Structure as smiles": "CN1CCN(Cc2ccc(NC(=O)Nc3ccc(Oc4cc(NC(=O)C5CC5)ncn4)cc3)cc2C(F)(F)F)CC1",
    "Label class": "Y"
  },
  {
    "Structure as smiles": "COc1cc(OC2CCN(C)CC2)ccc1Nc1ncc2c(n1)n(C1CCCC1)c(=O)n2C",
    "Label class": "Y"
  },
  {
    "Structure as smiles": "C[C@@H](Oc1cc(-c2cnn(C3CCNCC3)c2)cnc1N)c1c(Cl)ccc(F)c1Cl",
    "Label class": "Y"
  }
]

Answer briefly: the call reported for NC(=O)c1c(OCc2c(F)cc(Br)cc2F)nsc1NC(=O)NCCCCN1CCCC1 in this assay.
Y

Answer briefly: the call reported for CC=C1NC(=O)[C@H]2CSSCCC=C[C@H](CC(=O)N[C@H](C(C)C)C(=O)N2)OC(=O)[C@H](C(C)C)NC1=O in this assay.
Y

Answer briefly: the call reported for CCCCc1nc2cc(C=CC(=O)NO)ccc2n1CCN(CC)CC in this assay.
Y

Answer briefly: the call reported for Cc1ccc(NC(=O)C2(c3ccc4c(c3)OC(F)(F)O4)CC2)nc1-c1cccc(C(=O)O)c1 in this assay.
Y

Answer briefly: the call reported for CC(=O)OCCN1C(=O)c2c(C)nc3ccc(S(=O)(=O)N4CCOCC4)cc3c2C1=O in this assay.
N

Answer briefly: the call reported for CC(C)[C@H](C(=O)Nc1ccc(C(=O)NO)cc1)c1ccccc1 in this assay.
Y

Answer briefly: the call reported for COc1c(N2C[C@@H]3CCCN[C@H]3C2)c(F)cc2c(=O)c(C(=O)O)cn(C3CC3)c12 in this assay.
N

###

system: WaGa; assay: qHTS assay to identify novel small-molecules to repurpose for Merkel cell carcinoma treatment (AID 1296009); details: MCC and control cell lines, CellTiter-Glo viability, 72 h; series mostly up to 46 µM; further: nearly all actives have a fitted effect of over 60% in size
Inconclusive results are not listed. The source made the active and inactive calls. Calls come from the whole dose curve; as a rule, active = well fitted inhibition curve with a large enough effect; inconclusive = small, poorly fitted or top-dose-only effect; inactive = flat fitted curve, though single readings scatter.
Log the outcome using a class from 1 (active), -1 (inactive)

These solved cases illustrate the format of a correct answer.
[
  {
    "Structure as smiles": "CC(C)(C)NC(=O)[C@H]1CN(Cc2cccnc2)CCN1C[C@@H](O)C[C@@H](Cc1ccccc1)C(=O)N[C@H]1c2ccccc2C[C@H]1O",
    "Label class": -1
  },
  {
    "Structure as smiles": "O=C(O)c1ccc2cc(-c3ccc(O)c(C45CC6CC(CC(C6)C4)C5)c3)ccc2c1",
    "Label class": 1
  },
  {
    "Structure as smiles": "C=CC(=O)Nc1cccc(Oc2nc(Nc3ccc(N4CCN(C)CC4)cc3OC)ncc2Cl)c1",
    "Label class": 1
  }
]

API: the following record is the query input.
Answer briefly: the call reported for CCCNC(=O)Nc1ccc(Oc2ncnc3cc(OC)c(OC)cc23)cc1Cl in this assay.
-1

###

experiment: qHTS of pediatric cancer cell lines to identify multiple opportunities for drug repurposing: Primary screen for SK-N-SH cells (AID 1347098); conditions: SK-N-SH viability, CellTiter-Glo luminescence, 48 h; series mostly up to 57 µM; further: nearly all actives have a fitted effect of over 65% in size
Results filed as inconclusive are left out. Activity calls are given as the source filed them. The call rests on the fitted dose curve; in most records, active means well fitted cell-killing curve with a large enough effect; inconclusive means small, poorly fitted or top-dose-only effect; inactive means no such curve, though single readings can be large or run the other way.
Log the outcome using a class from active, inactive

These solved cases illustrate the format of a correct answer.
[
  {
    "Molecule": "c1nc2nc(Nc3ccc(N4CCOCC4)cc3)nc(NC3CCCCC3)c2[nH]1",
    "Label class": "active"
  },
  {
    "Molecule": "C[C@@H](Oc1cc(-c2cnn(C3CCNCC3)c2)cnc1N)c1c(Cl)ccc(F)c1Cl",
    "Label class": "active"
  },
  {
    "Molecule": "CC[C@@H]1C(=O)N(C)c2cnc(Nc3ccc(C(=O)NC4CCC(N5CCN(CC6CC6)CC5)CC4)cc3OC)nc2N1C(C)C (some centres not stated)",
    "Label class": "active"
  },
  {
    "Molecule": "Cc1nc2cnc3ccc(C#Cc4cccnc4)cc3c2n1-c1ccc(C(C)(C)C#N)cc1",
    "Label class": "active"
  },
  {
    "Molecule": "COc1ccc(F)c(F)c1C(=O)c1cnc(NC2CCN(S(C)(=O)=O)CC2)nc1N",
    "Label class": "active"
  }
]

Answer briefly: the call reported for CC(C)c1cc(C(=O)N2Cc3ccc(CN4CCN(C)CC4)cc3C2)c(O)cc1O in this assay.
active

Answer briefly: the call reported for CN(C)CC=CC(=O)Nc1cc2c(Nc3ccc(F)c(Cl)c3)ncnc2cc1O[C@H]1CCOC1 in this assay.
active

Answer briefly: the call reported for c1ccc2c(CCNc3ccc(Nc4ccncc4)cc3)c[nH]c2c1 in this assay.
active

Answer briefly: the call reported for Cc1cc(CN2CCN(c3c(Br)cnc4nc(-c5ccc(N6CCN(C)CC6)cc5)[nH]c34)CC2)no1 in this assay.
active

Answer briefly: the call reported for C1=CCOCc2cc(ccc2OCCN2CCCC2)Nc2nccc(n2)-c2cccc(c2)OCC1 in this assay.
active
